experiment: soluble on expression in E. coli; label from the status in PepcDB or PDB records
Metric Name: soluble on expression in E. coli

Here is how some sequences turned out for soluble on expression in E. coli.
MYSVSLMHGNPKTAIRPAGWHYGRRVYWIEGLPLIGHIAFGVIDRGTNVLQVRPSTLCFHNCIFCSVDAGPSSRRRRSEYTVEWEQLVVWVEKVARVKGGGLEALIDGVGEPLTHPHITRIIKALKGLDAIERVALETHGGSLSKSLARALEKAGLDRINLSVDAADPRLARSLVGVDWYGVDRVLKTAEWIIANTSIDVVLTPVVLPGVNEKEMATLVHWARRVGAGRKSGWPTGVLIQKFEIHKYGRKPSTVKSVWGWRRFYTWLARLEKETGYRLLVDPGEIGFKPRPRVEKPFERGDRVTLVLVGPGWHKGELLAVDRGWRRVVALYGLTEGEALTPGAEVEARIVRDKDNIFIAVPYAAALEHHHHHH: soluble
MTIKKSQIEKWIAAQKRHRLSDTHVQMARELGLNPDKLGKIDNHRQEPWKAPLPEFIEEIFYKRFKKERPDVVKPLKQILKEQEIKTKTKKKEKEIRRKEREQEQINNGTDEVLTFQSPTPITE: not soluble
MAKAFEEQRRSPDLEALPFEDRIGLLVDREAAERDTRRLTTRLKIAALRQTACVEDVDLRTPRGIDRAVFAKLVEGRWIDRHENLLVTGATGLGKSWLACALGHKACRDNRSVLYHRVPRLFEALALARGDGRYARLLKSLGRAQLLILDDWGLSVLTAAERRDLLEILEDRHGRASTIVTSQLPWTPGMEPLGTPRSPTPFSIASSTTPTASSSPEKACENAAPKPSPLTANQNTDSISHRPAAALEHHHHHH: not soluble
MSLETYIHEVVAPKLVGRDPLEIDRISKDLTGYLGFRSTGAEMRGNSAVDIGLWDLFGKATNLPIAQLLGGFSRREIRTYNTCAGNTYMRDAKGQQTANYGIGGPRRDYDDLNGFLERADELAEDLLSEGITAMKIWPFDIAAEKSGGQYISGPDLRKALEPFEKIRKRVGDRIDIMVEFHSMWQLTPAIQIARALEPYATFWHEDPIKMDSLSSLKRYAAASRAPLCASETLATRWAFRDLMETDAAGVVMLDLSWCGGISEAKKISTMAEAWHLPVAPHDCTGPVVLAASTHLSLNAPNALVQESVRAYYKTWYADLTTQLPTVTNGMITIPPGAGHGVDLAPDLDRKFEVSRRSSQIEDEGHHHHHH: not soluble
MSLFQSDLKLIVFQHGFFGERFVANLMNYPNSCPSYGACGIDGCTQCKEGLYNFSKNIIAVFSMPDPTTMPDFIENAEDFLPKVIPEADIAVAINLHPDVLAVMPEKLKGKVKALIVPVEEPRWCSPGLAKQIREKCDELGLEFAAPKPFCNLRPSEEHPTINRMIEEMRIGYPEFEIELLEDGKAYVRISRSQPCGCAYYIGVKLRGFDFSEVKEGKMRELWNVVAEAHHSYPCTASMERDNEYNETLLHVGGYIARHAVNRALGYEGDEDIPEHIKHIVLEGGSHHHHHH: soluble

Q: Using the record for MGSDKIHHHHHHMSHPPLIVHVIFHLGVGGLENGLVNLINHIPADRYRHAIICLKGFSEFHKRLNRDDVEIIALNKREGKDFSVYGKLYRVFRQLKPDIVHTRNLTAMEAQVVAAVAGVKARVHGEHGRDIFDLDGKNWKYNLLRKAIRPFIHHFITVSKDLENWLIDTVKVSPVKVHQIYNGVEHLRFHPGGTVPVEIFPPDFFAGRPFVVGSVGRMAAVKDFPTLVQAFLMLRNELSEIDRPLRLIIAGEGVARAECEAMLRSAGVEQFAWLPGERDDIPQLMQAMDVFVLPSLGEGISNTVLEAMASGLPVIATRVGGNTELVLEGETGRLVPSGDPVALARAISQYHQDNTAVYKHGQHARAIIEQQFSMRSMTNGYLAVYDRVLGYKSKTETIN , report its soluble on expression in E. coli.
Result: not soluble

Q: Using the record for MPTPLTHWSRWMQTASRFVDEYPNFSVLPPPPLRAPPPHSKISDRRSV , report its soluble on expression in E. coli.
Result: not soluble

Q: Using the record for MKQSTIALALLPLLFTPVTKAREVQLQQSGPELVKPGASVKMSCKASGYTFTSYVMHWVKQKPGQGLEWIGYINPYNDGTKYNEKFKGKATLTSDKSSSTAYMELSSLTSEDSAVYYCARGAYKRGYAMDYWGQGTSVTVSSRGGGGSGGGGSGGGGSDLVMSQSPSSLAVSAGEKVTMSCKSSQSLFNSRTRKNYLAWYQQKPGQSPKLLIYWASTRESGVPDRFTGSGSGTDFTLTISSVQAEDLAVYYCKQSYYHMYTFGSGTKLEIKHHHHHGLVPRGSGDPKADNK , report its soluble on expression in E. coli.
Result: soluble

Q: Using the record for MLLVSVISCLLISVLAKDAVTPRVGSQCTKNQVVRKLTVYEDGALEAECGPVPCGEVGKRCIDDQTSCRAETDVFSGMRWAPNGESILLRCCTMHAKNKIYVGTDVVAAGSFYEGGEVAEKDLYGDKGGAEYDFVANARTEQGGVRVWVYRMICAKGEKPVDFDPITTTSAPRVIKTTPAPTTTPTVEEEAEEAEQLEEDQPNDNEAEIVESNDEEEVVEEETEEEEEVTTTPAPKPFNPLRYRPPHFPRQSTGIRRA , report its soluble on expression in E. coli.
Result: not soluble

Q: Using the record for MRFSPIIGPSSYVSSLCHSILRGELFSTCSVGCIYCYARWYRGAHGKEKPLWESLKLIKMLGGIIREGLAITPIRVSTLSDPFQGEGKITLKFLKLALKEKVPVIINTKLIPREKHIKTIERLAEEGLVVVQVSLPTLEETKVLEPFSPSPGQRLELIERLSRAGVPTIVRVQPFVPGWIRDIHTFIEEIASAGARMIILEFLRIEKELLPLFSKLFPGEDIYKREWESYLPGTSTEEAPLLHPPLDYRLSIAREFSIKAEKEGLAFSTCKEGLFEFHTPLNVDCCGMAFFDVEYISRRPTLWDLYLEIVENGKAKGEDLWERCRREELLCRENLTPYPRWFRRGFIAHEKRLESVLRKPHIVERITPSIKYENGYFIKRKERSNSGYNSFF , report its soluble on expression in E. coli.
Result: not soluble

---

test: soluble on expression in E. coli; label from the status in PepcDB or PDB records
Metric Name: soluble on expression in E. coli

SLPGMEHNHNHDHSSHGNHAMHDVGPADATYDLRFIDAMIQHHYGAIEMAKVTINQGYPGAGALASQIISAQSWEIANMLRQRQLRFPDAPIMPVRYTPGQSTVLSQLQPMTEADKVAMRMSGTMDMTGDRGKAFAAAMIPHHEMAIAMAEDALAKSGDSFVRSISWEIIRTQSDEIRRLRGLL: not soluble
MGSDKIHHHHHHMKVAIVIHDLKGGGAEKMMMRLANAISKQHHEVDLVLLTNGGTNKDLLDNGVNLIELNSLRTASSVPRLRQYLKINSPDRVLSALTHVNVITFIACLSLGWLSRLHCSERNAFSFDKDVNKSPLIKFAYFLAPFLYRISPNPVIAVSLGVALDLIETTVVCPKNVINLPNPTLNDNYKTHIFLAPSHPWLSDKTKPVIVGLGRLAQQKGFSDLINAFALVREKIDSRLIIFGEGELRIKLQTQIDNLGLTDSVSLFGYVRAPMDEVHSADVFVLSSLFEGSPNALVEAMASRCKVVSTRCPCGPDEILIQGALGILVPVKSPNKLAEAIICSLLDADYDFENQLDKIERFTANNSASAYLSAMGIHGV: not soluble
MGSDKIHHHHHHMCTRFVYNGKETIVGFNFDIDLSEWEHTVIAEKDRFFIGIKMSDNKYHSFHGINRNGNVGTLLYVHGNDNAQFCSNESCYTIADLTENFIKGNLSFDDSLEIVKKKKITYAPDTTMQAMFSDRNGRVLIIEPGIGYRLEKEKYSLITNYSILKPELTNPYVLSGDNRYEKAKDLLQGYGENFSISNAFDVLRSVRQEGLWATRVSFIYSVAKNKVYYVLNNDFKNIAEYQF: not soluble

---

assay: soluble on expression in E. coli; label from the status in PepcDB or PDB records
Metric Name: soluble on expression in E. coli

Here is how some sequences turned out for soluble on expression in E. coli.
MNILLTSATGYLGRAIAAAIQSKGHRVTALARSAATAQRLEAAGIQPCRGDLTDAVALQQAAAQADAVIHTAATNDAAMGLVDRQAVKTLLAAIAGTQKPFLYTSGLWVMGNTGATVADETFPLNPPALVAWRPAVEALVLSAADQGVRSIVIRPALVYGRGGGLLPMLMQAGQSQGAVPVIGAGDNAWSFIHIDDLAALYVAAIEQAPARTLLIGASGESVSMQQVALTIAKTLGLGDRLQHLTLEEARAIWGDLADALTLDQRVSGDRARQLLHWQPVAPGVFQELTQGSYATKAIAALEHHHHHH: not soluble
MHCPFCRHPDSRVIDSRETDEGQAIRRRRSCPECGRRFTTVETAVLAVVKRSGVTEPFSREKVISGVRRACQGRQVDDDALNLLAQQVEDSVRAAGSPEIPSHDVGLAILGPLRELDEVAYLRFASVYRSFSSADDFAREIEALRAHRNLSAHS: soluble
MTFSCEPAELRSRAKAAFIGLAVGDALGAPVEFMTTGEIKAKHGVLREIVGGGWLRLKPGQVTDDTDMSLCVARGVAKAGEWNLTAIAEEFAAWLRSKPVDVGDTCRRGIRNYMLKGLLETPFNQWDAGNGAAMRMLPTALFTMGDDNLLCRCAVEQGHLTHNHPLSDAACITLGRLVHLSVLGFSKPRLRREADRLTESHPTFSFEPYRGLATGYVVDTMQTVLHFFFRGRDFEECLVSTVNQGGDADTTGAIIGMVAGAYYGMEEIPRRWLKKMDRQVLDEIDTLSDLLISLSPALRSGNGILLPPA: not soluble
MFLKKETFTRGDASVALFELSGLQRIEYLEFIQKRTAKYDTDMDGTTEADKRVAYMQMALEINAWLVSRSLLNGDSSQDADTLYQSVQAKWSYEALDAGAESVLMLSGLSADKKDNASDSGNESEDMTPEKS: not soluble
MFDISHMGRLLIEDPEKKLQYFTTNNLDKLSVGKVQYNLLPNEKGGIKDDVTVYMLSEIEFFLCVNAANRQKVINWLSPHLKLRDLSGELVQIALQGPKSEEIISKFYPVSDLKYYRFKVFDKTIISRTGYTGEDGFEIYVSPEEGKELFLELVKLAKPCGLGARDVLRIEAGLPLYGNELSEEITPIEVNLEKFVDFSKEFIGKEAMLKKKVKKKLFGLELTEKGIPRKGYRVFKGDREIGWISSGTYSPTLNKGIALCFVDIEERKEGNEVEIEVRGRRVRGVLRKYPFVRTPAGRYQKLEHHHHHH: not soluble

Q: Using the record for MFAELIRAGLQALIEAEATEAIGAGRYERSDGRIVHRNGHRPKTVSTTAGDIEVQIPKLRAGSFFPSLLERRRRIDKALHAVIMEAYVHGVSTRSVDDLVAAMGVQAGVSKSEVSRICAGLDTEIEAFRTRSLTHTEFPYVFCDATFCKVRVGAHVVSQALVVATGVSIDGTREVLGTAVGDSESYEFWREFLASLKARGLTGVHLVISDAHAGLKAAVAQQFSGASWQRCRVHFMRNLYTAVAAKHAPAVTVAVKTIFAHTDPEEVGAQWDRVADPLCQP , report its soluble on expression in E. coli.
Result: soluble
